System: L929 mouse fibroblasts
Marks after values point to notes of the source that are not given here.
experimental-readout: Maximum Non-Cytotoxic Concentration L929

1) O=C(O)CSCCC(F)(F)C(F)(F)C(F)(F)C(F)(F)C(F)(F)C(F)(F)C(F)(F)C(F)(F)F [2a3f]    0.2%
2) O=C([O-])CCC(=O)OCCC(F)(F)C(F)(F)C(F)(F)C(F)(F)C(F)(F)C(F)(F)F.[K+]    <0.25** %
3) O=C(O)CCC(=O)OCCC(F)(F)C(F)(F)C(F)(F)C(F)(F)C(F)(F)C(F)(F)F [2i3c]    0.10** %
4) O=C(O)CSCCC(F)(F)C(F)(F)C(F)(F)C(F)(F)C(F)(F)C(F)(F)C(F)(F)C(F)(F)F [2a3e]    0.2%
5) O=C(O)CCCCCSCCC(F)(F)C(F)(F)C(F)(F)C(F)(F)C(F)(F)C(F)(F)C(F)(F)C(F)(F)F [2c3c]    0.25%
6) O=C(O)CCC(=O)OCCC(F)(F)C(F)(F)C(F)(F)C(F)(F)C(F)(F)C(F)(F)C(F)(F)C(F)(F)F [2j3e]    0.5%
7) O=C(O)CCC(=O)OCCC(F)(F)C(F)(F)C(F)(F)C(F)(F)C(F)(F)C(F)(F)C(F)(F)C(F)(F)F [2j3k]    0.50* %

====

System: L929 mouse fibroblasts
Listing: Maximum Non-Cytotoxic Concentration L929 of selected compounds
experimental-readout: Maximum Non-Cytotoxic Concentration L929 (%)

1. O=C(O)CCC(=O)OCCC(F)(F)C(F)(F)C(F)(F)C(F)(F)C(F)(F)C(F)(F)F [2i2i3h]    0.1
2. O=C(O)CSCCC(F)(F)C(F)(F)C(F)(F)C(F)(F)C(F)(F)C(F)(F)C(F)(F)C(F)(F)F [2a3d]    0.2
3. O=C(O)CCCC(=O)OCCC(F)(F)C(F)(F)C(F)(F)C(F)(F)C(F)(F)C(F)(F)C(F)(F)C(F)(F)F [2l3c]    0.5
4. O=C(O)CSCCC(F)(F)C(F)(F)C(F)(F)C(F)(F)C(F)(F)C(F)(F)C(F)(F)C(F)(F)F [2a3a]    0.5
5. O=C([O-])CSCCC(F)(F)C(F)(F)C(F)(F)C(F)(F)C(F)(F)C(F)(F)C(F)(F)C(F)(F)F.[K+]    1
6. O=C(O)CSCCC(F)(F)C(F)(F)C(F)(F)C(F)(F)C(F)(F)C(F)(F)C(F)(F)C(F)(F)F [2a3c]    0.2
7. O=C(O)CCCCCSCCC(F)(F)C(F)(F)C(F)(F)C(F)(F)C(F)(F)C(F)(F)C(F)(F)C(F)(F)F [2c3a]    0.5
8. O=C(O)CCCCCSCCC(F)(F)C(F)(F)C(F)(F)C(F)(F)C(F)(F)C(F)(F)C(F)(F)C(F)(F)F [2c3e]    0.5
9. O=C(O)CCC(=O)OCCC(F)(F)C(F)(F)C(F)(F)C(F)(F)C(F)(F)C(F)(F)C(F)(F)C(F)(F)F [2j3a]    0.2
10. O=C(O)CCC(=O)OCCC(F)(F)C(F)(F)C(F)(F)C(F)(F)C(F)(F)C(F)(F)C(F)(F)C(F)(F)F [2j3c]    0.25
11. O=C([O-])CSCCC(F)(F)C(F)(F)C(F)(F)C(F)(F)C(F)(F)C(F)(F)C(F)(F)C(F)(F)F.[Na+]    1
12. O=C(O)CSCCC(F)(F)C(F)(F)C(F)(F)C(F)(F)C(F)(F)C(F)(F)C(F)(F)C(F)(F)F [2a3b]    0.5
13. O=C(O)CCC(=O)OCCC(F)(F)C(F)(F)C(F)(F)C(F)(F)C(F)(F)C(F)(F)F [2i3k]    0.1
14. O=C(O)CC(F)(F)C(F)(F)C(F)(F)C(F)(F)C(F)(F)C(F)(F)F [2p3e]    0.1
15. O=C(O)C(CCC(F)(F)C(F)(F)C(F)(F)C(F)(F)C(F)(F)C(F)(F)C(F)(F)C(F)(F)F)C(=O)O    0.25
16. O=C(O)CC(F)(F)C(F)(F)C(F)(F)C(F)(F)C(F)(F)C(F)(F)F [2p3c]    0.1
17. O=C(O)CCCCCSCCC(F)(F)C(F)(F)C(F)(F)C(F)(F)C(F)(F)C(F)(F)C(F)(F)C(F)(F)F [2c3k]    0.25
